target: Genome polyprotein (dengue virus type 2); format: functional, Thailand/16681/1984
Sequence (P29990 1346-1475 limits assumed): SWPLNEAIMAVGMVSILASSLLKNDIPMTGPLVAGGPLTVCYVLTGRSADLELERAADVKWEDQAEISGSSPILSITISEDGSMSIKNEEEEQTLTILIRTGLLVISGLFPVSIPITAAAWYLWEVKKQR
Sequence (P29990 1476-2093 limits assumed): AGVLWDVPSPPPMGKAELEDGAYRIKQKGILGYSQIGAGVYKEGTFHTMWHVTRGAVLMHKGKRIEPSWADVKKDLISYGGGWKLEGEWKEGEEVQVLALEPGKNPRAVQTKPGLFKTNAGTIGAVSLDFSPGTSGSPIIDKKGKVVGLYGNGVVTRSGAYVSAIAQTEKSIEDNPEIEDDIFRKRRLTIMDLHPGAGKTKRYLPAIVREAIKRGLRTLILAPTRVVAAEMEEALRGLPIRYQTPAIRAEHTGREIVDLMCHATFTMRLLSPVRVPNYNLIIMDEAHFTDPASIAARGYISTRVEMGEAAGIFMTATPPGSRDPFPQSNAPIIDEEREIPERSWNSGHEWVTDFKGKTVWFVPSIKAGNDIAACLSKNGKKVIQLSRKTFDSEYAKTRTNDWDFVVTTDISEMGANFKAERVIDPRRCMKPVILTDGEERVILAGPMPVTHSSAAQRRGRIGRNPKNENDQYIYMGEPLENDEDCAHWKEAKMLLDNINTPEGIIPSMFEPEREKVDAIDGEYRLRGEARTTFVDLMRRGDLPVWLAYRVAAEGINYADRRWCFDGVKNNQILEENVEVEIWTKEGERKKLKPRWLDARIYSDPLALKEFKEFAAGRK
Each entry below carries its recorded IC50.
PROPERTY: IC50

SMILES TEXT: Oc1cc(N2CCN(Cc3c[nH]c4ccccc34)CC2)ccn1
RECORDED MEASUREMENT: > 99.5 µM
--
SMILES TEXT: NC[C@H]1CC[C@H](NC(=O)c2cc(Cl)cc3[nH]ncc23)CC1
RECORDED MEASUREMENT: > 99.5 µM
--
SMILES TEXT: O=S(=O)(Nc1ccc(Oc2ccccc2Cl)cc1)c1c[nH]c2ccc(Cl)cc12
RECORDED MEASUREMENT: > 99.5 µM
--
SMILES TEXT: NCCC1(C(=O)Nc2ccc3c(c2)C(=O)OC3)CCCC1
RECORDED MEASUREMENT: > 99.5 µM
--
SMILES TEXT: c1ccc2c(CN[C@H]3CCc4c([nH]c5ccccc45)C3)n[nH]c2c1
RECORDED MEASUREMENT: > 99.5 µM
--
SMILES TEXT: CSc1ccc([C@H](CC(=O)Nc2cccc(CN)c2)NC(=O)OCc2ccccc2)cc1
RECORDED MEASUREMENT: 44.2 µM
--
SMILES TEXT: N=C(N)NCCc1cccc(B(O)O)c1
RECORDED MEASUREMENT: > 99.5 µM
--
SMILES TEXT: O=C(Nc1cc(Cl)cc(C(=O)NC2(c3nn[nH]n3)CCCC2)c1)OCc1ccccc1
RECORDED MEASUREMENT: > 99.5 µM
--
SMILES TEXT: Cc1c(C(=O)Nc2ccnc(O[C@H]3CCOC3)c2)cc(C2CC2)n1C
RECORDED MEASUREMENT: > 99.5 µM
--
SMILES TEXT: O=C(N[C@@H](C(=O)NCC1CCNCC1)c1ccc(OCc2ccccc2)cc1)OCc1ccccc1
RECORDED MEASUREMENT: > 99.5 µM
--
SMILES TEXT: O=C1Cc2c(cccc2C(=O)N[C@H]2CCc3ncsc3C2)N1
RECORDED MEASUREMENT: > 99.5 µM
